# Read-out: TIMP metallopeptidase inhibitor 1 (TIMP1), TIMP1 (gene 7076)
# Measurement Notes: BSK_hDFCGF_TIMP1: BioMAP Diversity Plus: hDFCGF Assay for TIMP metallopeptidase inhibitor 1 (TIMP1) Biomarker Activity (AID 2283062)
# Condition: primary human foreskin fibroblasts; actives raise or lower the signal
Calls of active or inactive are those of the source. The calls were made as follows: active = hit-call score of the fitted dose curve at least 0.9, where 1 is the maximum; inactive = score below 0.9.
Measured Quantity: outcome

Consider the following illustrative entries.
Cc1ccc([N+](=O)[O-])cc1N inactive
COC(OC)(C(=O)c1ccccc1)c1ccccc1 inactive
CCCCCCOC(=O)CCCCC(=O)OCCCCCC inactive
CCCCCCC=O inactive

Looking for the measured outcome of CC(C)[N+](C)(CCOC(=O)C1c2ccccc2Oc2ccccc21)C(C)C , can you help?
inactive

Looking for the measured outcome of O=C(Oc1ccccc1)c1ccccc1C(=O)Oc1ccccc1 , can you help?
inactive

Looking for the measured outcome of CC(C)C(=O)OCCc1ccccc1 , can you help?
inactive

Looking for the measured outcome of C=CC(=O)NC(C)(C)C , can you help?
inactive

----------
# Measurement Notes: ATG_TGFb_CIS: Attagene CIS-FACTORIAL HepG2 Assay for human Transforming Growth Factor (TGF) (AID 2282967)
# Condition: HepG2 Attagene CIS TGFb reporter, mRNA transcription; actives raise or lower the signal
Calls of active or inactive are those of the source. How the source made its calls: active means hit-call score of the fitted dose curve at least 0.9, where 1 is the maximum; inactive means score below 0.9.
Choose the fitting class; nothing outside yes for active, no for inactive is accepted.

Worked examples, 3 molecules total:
Molecule	Qualitative Label
COc1cc(O)c(C(=O)c2ccccc2)cc1S(=O)(=O)O	no
CC1=CCC2CC1C2(C)C (stereo not given)	no
CN(C)c1ccc2nc3ccc(=[N+](C)C)cc-3sc2c1	no

Please state the recorded outcome for this molecule: CC(C)OC(=O)c1ccccc1
no

Please state the recorded outcome for this molecule: CC/C=C\C/C=C\C/C=C\CCCCCCCC(=O)OC
yes

Please state the recorded outcome for this molecule: CCOc1ccc(NC(N)=O)cc1
no

Please state the recorded outcome for this molecule: CN1CCN(C)CC1
no

Please state the recorded outcome for this molecule: CCCCCCO
no

Please state the recorded outcome for this molecule: CCc1occc(=O)c1O
no

Please state the recorded outcome for this molecule: [Cl][Eu]([Cl])[Cl]
no

Please state the recorded outcome for this molecule: Nc1ccc(O)c([N+](=O)[O-])c1
no

Please state the recorded outcome for this molecule: CCC(C)C(=O)OCCc1ccccc1 (stereo not given)
no

Please state the recorded outcome for this molecule: O=C(Cl)c1ccc(C(=O)Cl)cc1
no

Please state the recorded outcome for this molecule: CC(=O)C(C)C
no

Please state the recorded outcome for this molecule: CCCCC/C=C\C/C=C\CCCCCCCC(=O)O
no

----------
# Read-out: Actin alpha 1 (ACTA1), ACTA1 (gene 58)
# Measurement Notes: BSK_MyoF_ACTA1: BioMAP Diversity Plus: MyoF Assay for Actin alpha 1 (ACTA1) Biomarker Activity (AID 2284244)
# Condition: primary human lung fibroblasts
Activity calls are given as the source filed them. How the source made its calls: active means hit-call score of the fitted dose curve at least 0.9, where 1 is the maximum; inactive means score below 0.9.
Choose the fitting class; nothing outside t for active, f for inactive is accepted.

Please state the recorded outcome for this molecule: CCc1cccc(C)c1N(C(=O)CS(=O)(=O)O)C(C)COC (centres undefined)
f

Please state the recorded outcome for this molecule: CC(Cl)COP(=O)(OCC(C)Cl)OCC(C)Cl (centres undefined)
f

Please state the recorded outcome for this molecule: O=C(Cl)c1c(Cl)c(Cl)c(C(=O)Cl)c(Cl)c1Cl
f

Please state the recorded outcome for this molecule: C=CC(=O)OCC(C)OCC(C)OCC(C)OC(=O)C=C (centres undefined)
t

Please state the recorded outcome for this molecule: Clc1cc(Cl)c(Cl)c(Cl)c1Cl
f

Please state the recorded outcome for this molecule: CC(c1cc(C(C)(C)C)cc(C(C)(C)C)c1O)c1cc(C(C)(C)C)cc(C(C)(C)C)c1O
f

Please state the recorded outcome for this molecule: Oc1ccc(/C=C/c2cc(O)cc(O)c2)cc1
f

Each recorded value in this set is attributed to PubChem BioAssay (EPA / NIEHS).
